Origin of the recorded values: patent US20250170130A1

Biological target: MycN (Homo sapiens, UniProt P04198)
Construct: endogenous in cells; host or cells: SK-N-BE(2)
Experiment: Degradation of MycN protein in SK-N-BE(2) cells, JESS/Western blot of lysates
Assay type: cell-based
Conditions: SKNBE2, 24 h, SKNBE2 cells, 24 h, 3 μM; read-out: % Degradation of MycN (SKNBE2) 24 h, 3 μM
parameter: Dmax at 3 µM

Documented Dmax at 3 µM of CN(C)CCCN(C)c1nccc(Nc2cc(C3CC3)[nH]n2)n1 [Compound 48] : < 20%

Documented Dmax at 3 µM of c1cc(Nc2cc(C3CC3)[nH]n2)nc(N2CC3(CCCNC3)C2)n1 [Compound 105] : < 20%

Documented Dmax at 3 µM of NCC1CN(c2nccc(Nc3cc(C4CC4)[nH]n3)n2)CC1(F)F (stereo not shown) [Compound 124] : 20 to 49%

Documented Dmax at 3 µM of CN(C)CC12CC(C1)N(c1nccc(Nc3cc(C4CC4)[nH]n3)n1)C2 [Compound 22] : 20 to 49%

----------
Biological target: MycC (Homo sapiens, UniProt P01106)
Construct: endogenous in cells; host or cells: L363
Sequence (P01106 whole entry): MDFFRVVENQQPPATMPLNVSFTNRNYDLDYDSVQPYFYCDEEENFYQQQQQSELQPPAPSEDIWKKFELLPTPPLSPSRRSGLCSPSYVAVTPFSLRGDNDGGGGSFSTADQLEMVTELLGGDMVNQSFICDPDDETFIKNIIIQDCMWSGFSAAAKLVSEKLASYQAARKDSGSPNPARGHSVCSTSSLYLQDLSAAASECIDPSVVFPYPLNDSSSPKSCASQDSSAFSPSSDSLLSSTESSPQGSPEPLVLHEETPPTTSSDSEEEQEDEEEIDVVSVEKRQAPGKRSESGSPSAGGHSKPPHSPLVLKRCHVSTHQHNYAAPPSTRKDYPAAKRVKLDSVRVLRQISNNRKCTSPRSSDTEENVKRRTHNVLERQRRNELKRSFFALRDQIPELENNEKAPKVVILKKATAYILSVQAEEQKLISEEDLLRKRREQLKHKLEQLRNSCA
Assay: Degradation of MycC protein in L363 cells, JESS/Western blot of lysates
Type: cell-based
Conditions: L-363, 24 h, read-out: % Degradation of MycC (L-363) 24 h, 3 μM
parameter: Dmax at 3 µM

Consider the following illustrative entries.
[
  {
    "compound": "NCC12CC(C1)N(c1nccc(Nc3cc(C4CC4)[nH]n3)n1)C2",
    "assay.result": "80 to 100%"
  },
  {
    "compound": "NCC1CN(c2nccc(Nc3cc(C4CC4)[nH]n3)n2)CC(F)(F)C1 (stereo not shown)",
    "assay.result": "80 to 100%"
  },
  {
    "compound": "O=C1c2ccccc2C(=O)N1CC12CC(CN(c3nccc(Nc4cc(C5CCCC5)[nH]n4)n3)C1)C2",
    "assay.result": "80 to 100%"
  },
  {
    "compound": "CC(C)NCC12CC(C1)N(c1nccc(Nc3cc(C4CCCC4)[nH]n3)n1)C2",
    "assay.result": "50 to 79%"
  },
  {
    "compound": "N#CC1(CN)CCCN(c2nccc(Nc3cc(C4CC4)[nH]n3)n2)C1 (stereo not shown)",
    "assay.result": "80 to 100%"
  }
]

Dmax at 3 µM on MycC (Homo sapiens, UniProt P01106) for "c1cc(Nc2cc(C3CCCC3)[nH]n2)nc(N2CC3(CN4CCC4)CC2C3)n1" is < 20%

Dmax at 3 µM on MycC (Homo sapiens, UniProt P01106) for "COCCNCC12CC(C1)N(c1nccc(Nc3cc(C4CCCC4)[nH]n3)n1)C2" is 80 to 100%

----------
Target: MycN (Homo sapiens, UniProt P04198)
Construct: endogenous in cells; host or cells: SK-N-BE(2)
Assay: Degradation of MycN protein in SK-N-BE(2) cells, JESS/Western blot of lysates
Assay type: cell-based
Conditions: SKNBE2, 24 h, SKNBE2 cells, 24 h, 6 μM; read-out: % Degradation of MycN (SKNBE2) 24 h, 6 μM
parameter: Dmax at 6 µM

Consider the following illustrative entries.
[
  {
    "compound": "CNC(C)C1CCCN(c2nccc(Nc3cc(C4CC4)[nH]n3)n2)C1 (single isomer, unassigned)",
    "parameter": "Dmax at 6 µM",
    "assay.result": "80 to 100%"
  },
  {
    "compound": "CN1CC2(CCCN(c3nccc(Nc4cc(C5CCCC5)[nH]n4)n3)C2)C1",
    "parameter": "Dmax at 6 µM",
    "assay.result": "20 to 49%"
  },
  {
    "compound": "CN(C)CCCN(C)c1nccc(Nc2cc(C3CC3)[nH]n2)n1",
    "parameter": "Dmax at 6 µM",
    "assay.result": "< 20%"
  },
  {
    "compound": "c1cc(Nc2cc(C3CC3)[nH]n2)nc(N2CC3(CCNC3)C2)n1",
    "parameter": "Dmax at 6 µM",
    "assay.result": "20 to 49%"
  },
  {
    "compound": "CC1(NCC23CC(C2)N(c2nccc(Nc4cc(C5CCCC5)[nH]n4)n2)C3)COC1",
    "parameter": "Dmax at 6 µM",
    "assay.result": "80 to 100%"
  }
]

Turning now to a further record.
Documented Dmax at 6 µM of "CN[C@@H]1CCN(c2nccc(Nc3cc(C4CC4)[nH]n3)n2)C1" : 20 to 49%

----------
Target: MycC (Homo sapiens, UniProt P01106)
Construct: endogenous in cells; host or cells: L363
Experiment: Degradation of MycC protein in L363 cells, JESS/Western blot of lysates
Type: cell-based
Details: L-363, 24 h, L-363 cells, 24 h, 1 μM; read-out: % Degradation of MycC (L-363) 24 h, 1 μM
Reported Dmax at 1 µM by item:

Consider the following illustrative entries.
[
  {
    "compound": "CNCC12CCC(C1)N(c1nccc(Nc3cc(C4CCCC4)[nH]n3)n1)C2 (centres unmarked)",
    "Dmax at 1 µM": "80 to 100%"
  },
  {
    "compound": "CNC(C)C1CCCN(c2nccc(Nc3cc(C4CC4)[nH]n3)n2)C1 (single isomer, unassigned)",
    "Dmax at 1 µM": "20 to 49%"
  },
  {
    "compound": "CS(=O)(=O)CCNCC12CC(C1)N(c1nccc(Nc3cc(C4CCCC4)[nH]n3)n1)C2",
    "Dmax at 1 µM": "< 20%"
  },
  {
    "compound": "CN(C)CC1CCN(c2nccc(Nc3cc(C4CC4)[nH]n3)n2)CC1",
    "Dmax at 1 µM": "< 20%"
  },
  {
    "compound": "NC[C@@H]1CCCN(c2nccc(Nc3cc(C4CCCC4)[nH]n3)n2)C1",
    "Dmax at 1 µM": "< 20%"
  }
]

Documented Dmax at 1 µM of "NC[C@H]1CN(c2nccc(Nc3cc(C4CCCC4)[nH]n3)n2)C[C@H]1F" : 50 to 79%

Documented Dmax at 1 µM of "CNCC1CCN(c2nccc(Nc3cc(C4CC4)[nH]n3)n2)CC1" : < 20%

Documented Dmax at 1 µM of c1cc(Nc2cc(C3CC3)[nH]n2)nc(N2CCC3(CCNC3)C2)n1 (centres unmarked) : < 20%

Documented Dmax at 1 µM of NCC1CN(c2nccc(Nc3cc(C4CC4)[nH]n3)n2)CC1(F)F (centres unmarked) : < 20%

Documented Dmax at 1 µM of "CC(F)(F)CNCC12CC(C1)N(c1nccc(Nc3cc(C4CCCC4)[nH]n3)n1)C2" : < 20%

Documented Dmax at 1 µM of "c1cc(Nc2cc(C3CC3)[nH]n2)nc(N2CC3(CNC3)C2)n1" : 20 to 49%

Documented Dmax at 1 µM of "O=C1c2ccccc2C(=O)N1CC12CC(CN(c3nccc(Nc4cc(C5CC5)[nH]n4)n3)C1)C2" : 80 to 100%

----------
Target: MycN (Homo sapiens, UniProt P04198)
Construct: endogenous in cells; host or cells: SK-N-BE(2)
Sequence (P04198 1-464): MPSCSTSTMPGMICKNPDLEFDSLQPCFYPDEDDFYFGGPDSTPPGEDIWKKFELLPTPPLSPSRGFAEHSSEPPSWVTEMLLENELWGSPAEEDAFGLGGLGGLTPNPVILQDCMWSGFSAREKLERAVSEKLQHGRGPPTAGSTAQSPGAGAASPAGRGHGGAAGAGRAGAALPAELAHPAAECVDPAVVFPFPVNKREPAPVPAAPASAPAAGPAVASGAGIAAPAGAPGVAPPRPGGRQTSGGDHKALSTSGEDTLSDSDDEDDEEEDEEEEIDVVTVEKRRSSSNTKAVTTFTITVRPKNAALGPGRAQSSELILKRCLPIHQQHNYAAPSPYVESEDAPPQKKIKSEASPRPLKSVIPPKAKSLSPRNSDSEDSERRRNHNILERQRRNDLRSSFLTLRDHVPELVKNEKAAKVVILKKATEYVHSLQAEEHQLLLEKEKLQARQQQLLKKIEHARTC
Assay: Degradation of MycN protein in SK-N-BE(2) cells, JESS/Western blot of lysates
Assay type: cell-based
Conditions: SKNBE2, 24 h, SKNBE2 cells, 24 h, 3 μM; read-out: % Degradation of MycN (SKNBE2) 24 h, 3 μM
Method: For L363 cells (suspension), 1E6 cells were plated into each well of a 6 well plate. For SK-N-BE(2) cells (adherent), 5E5 cells were plated into each well of a 6 well dish. […] Once an appropriate lysate concentration and antibody concentration was determined, samples were screened in the JESS technology (Protein Simple, San Jose, CA—https://www.proteinsimple.com/jess.html). […]
Reported Dmax at 3 µM by item:

Consider the following illustrative entries.
[
  {
    "molecule": "c1cc(Nc2cc(C3CC3)[nH]n2)nc(N2CCC3(CNC3)C2)n1",
    "Dmax at 3 µM": "< 20%"
  },
  {
    "molecule": "CNCC12CC(C1)N(c1nccc(Nc3cc(C4CCCC4)ncn3)n1)C2",
    "Dmax at 3 µM": "50 to 79%"
  },
  {
    "molecule": "c1cc(Nc2cc(C3CC3)[nH]n2)nc(N2CC(C3CNC3)C2)n1",
    "Dmax at 3 µM": "< 20%"
  },
  {
    "molecule": "CN[C@@H]1CCN(c2nccc(Nc3cc(C4CC4)[nH]n3)n2)C1",
    "Dmax at 3 µM": "20 to 49%"
  },
  {
    "molecule": "c1cc(Nc2cc(C3CCCC3)[nH]n2)nc(N2CC3(CN4CCCC4)CC2C3)n1",
    "Dmax at 3 µM": "50 to 79%"
  },
  {
    "molecule": "CNC[C@@H]1CCN(c2nccc(Nc3cc(C4CC4)[nH]n3)n2)C1",
    "Dmax at 3 µM": "20 to 49%"
  },
  {
    "molecule": "O=S1(=O)CCN(CC23CC(C2)N(c2nccc(Nc4cc(C5CCCC5)[nH]n4)n2)C3)CC1",
    "Dmax at 3 µM": "50 to 79%"
  }
]

Turning now to a further record.
Documented Dmax at 3 µM of CN(C)C[C@H]1CCN(c2nccc(Nc3cc(C4CC4)[nH]n3)n2)C1 (stereo in doubt) : 50 to 79%
